From: the NIST ThermoML archive (doi:10.1021/je030215z)

Please go through the items and note down their excess molar enthalpy.
- test-description: excess molar enthalpy (molar enthalpy of mixing); xn = mol fraction of the nth substance listed
- condition-summary: 298.15 K; 101.33 kPa; Liquid; Flow calorimetry; x1 = 0.95
Numbers only, in kcal/mol.

Worked examples follow.
Query string: Please report the recorded excess molar enthalpy for C=CCCCC [hex-1-ene] + CCCCCCCC .
Result string: 0.00332

Query string: And for C=CCCCC [hex-1-ene] + CCCCCCCCCCCC ?
Result string: 0.00626

Query string: And the next one, C=CCCCC [hex-1-ene] + CCCCCCCCCC ?
Result string: 0.00457

From here, focus on the item given below.
Query string: Please report the recorded excess molar enthalpy for C=CCCCC [hex-1-ene] + CCCCCCC .
Result string: 0.0028

---

- condition-summary: 298.15 K; 101.33 kPa; Liquid
Assign mass density to each entry below.
Give bare numbers, in kg/m3.

Query string: For the compound CCCCCCCC [octane] , what mass density is on record?
Result string: 698.72

Query string: Request: CCCCCCC [heptane]
Result string: 680.17

Query string: Please do the same for CCCCCCCCCCCCCC [tetradecane] as well.
Result string: 759.36

Please look at the items below and tell me mass density for each one, in order.
1. C=CCCCC [hex-1-ene]
2. CCCCCCCCCC [decane]
3. CCCCCCCCCCCC [dodecane]

Result string:
[668.73, 726.3, 745.32]
